- System: HeLa cells
- assayExplanation: Cytotoxicity in HeLa cells, ATP content measured with the ATPlite kit
- Assay type: cell-based
Collected TOX HELA pCC50 values appear next to each entry.

>  <compound>
C[C@@H]1CCCCCN1C(=O)c1cc(C2CC2)n2nc(-c3ccc(-c4ccc(C(=O)O)cn4)cc3F)cc2n1

>  <inequalitySymbol>
=

>  <TOX HELA pCC50>
4.37

$$$$
>  <compound>
CCc1cc(C(=O)N2CCCCCC2C)nc2cc(-c3ccc4[nH]c(=O)ccc4c3)nn12 (stereo not drawn)

>  <inequalitySymbol>
<

>  <TOX HELA pCC50>
4.60

$$$$
>  <compound>
CCc1cc(C(=O)N2CCc3ccccc3[C@H]2C)nc2cc(-c3ccc4c(c3F)OCC(C(=O)O)=C4)nn12

>  <inequalitySymbol>
=

>  <TOX HELA pCC50>
4.75

$$$$
>  <compound>
CCc1cc(C(=O)N2CCCCCC2C)nc2cc(-c3ccccc3Cl)nn12 (stereo not drawn)

>  <inequalitySymbol>
=

>  <TOX HELA pCC50>
4.40

$$$$
>  <compound>
CC(C)Cc1cc(C(=O)N2CCCCC[C@H]2C)nc2cc(-c3ccc(N4CC[C@H](C(=O)O)C4)cc3F)nn12

>  <inequalitySymbol>
=

>  <TOX HELA pCC50>
4.29

$$$$
>  <compound>
CCc1cc(C(=O)N2CCc3ccccc3[C@H]2C)nc2cc(-c3ccc4cc(C(=O)O)ccc4c3F)nn12

>  <inequalitySymbol>
=

>  <TOX HELA pCC50>
4.17

$$$$
>  <compound>
CCc1cc(C(=O)N2CCn3c(C)ccc3C2C)nc2cc(-c3ccc(C(N)=O)cc3F)nn12 (stereo not drawn)

>  <inequalitySymbol>
<

>  <TOX HELA pCC50>
4.60

$$$$
>  <compound>
CCc1cc(C(=O)N2CCCC3(CC=CC3)C2C)nc2cc(-c3cccc(/C=C/C(=O)O)c3F)nn12 (stereo not drawn)

>  <inequalitySymbol>
<

>  <TOX HELA pCC50>
4

$$$$
>  <compound>
CCCC(C)N(CC)C(=O)c1cc(CC)n2nc(-c3ccccc3F)cc2n1 (stereo not drawn)

>  <inequalitySymbol>
=

>  <TOX HELA pCC50>
4.45

$$$$
>  <compound>
CCc1cc(C(=O)N2CCCCC[C@H]2C)nc2cc(-c3ccc(-c4nc(C(=O)O)ccc4F)cc3F)nn12

>  <inequalitySymbol>
=

>  <TOX HELA pCC50>
4.30

$$$$
>  <compound>
CCc1cc(C(=O)N2CCCCC[C@H]2C)nc2cc(-c3ccc4c(c3F)C=C(C(=O)O)CO4)nn12

>  <inequalitySymbol>
<

>  <TOX HELA pCC50>
4

$$$$
>  <compound>
CCc1cc(C(=O)N2CCc3ccccc3C2C)nc2cc(-c3ccc(/C=C/C(=O)O)cc3Cl)nn12 (stereo not drawn)

>  <inequalitySymbol>
<

>  <TOX HELA pCC50>
4.60

$$$$
>  <compound>
CCc1cc(C(=O)N2CCc3sccc3[C@H]2C)nc2cc(-c3ccc(-c4ccc(C(=O)O)cn4)cc3F)nn12

>  <inequalitySymbol>
=

>  <TOX HELA pCC50>
4.35

$$$$
>  <compound>
CCCC(C)N(C)C(=O)c1cc(CC)n2nc(-c3cccc(/C=C/C(=O)O)c3F)cc2n1 (stereo not drawn)

>  <inequalitySymbol>
<

>  <TOX HELA pCC50>
4

$$$$
>  <compound>
C[C@@H]1CCCCCN1C(=O)c1cc(C2(C)COC2)n2nc(-c3ccc(C4C[C@H]4C(=O)O)cc3F)cc2n1 (stereo partly drawn)

>  <inequalitySymbol>
=

>  <TOX HELA pCC50>
4.11

$$$$
